- procedure_summary: PET hydrolysis, aromatic products released after 48 h (umol product/mg enzyme); higher = more PET depolymerization activity
- details: substrate: cryPow; 40 °C; pH 5.5
measured_endpoint: PET hydrolysis
Give the figure only, with no unit attached.

biosequence	PET hydrolysis
MAAANPYQRGPDPTLASVAATNGPFATAQMTVPPGNGFNGGYIYYPTDTSLGTWGAVAIVPGYTALFKNEEAWMGPRLASFGFVVIGIETNSRTDFDTARGTQLLAALDYLTQKSAVRNRVDPGRLGVIGHSMGGGGALVAATQRPSLKAAVGLAPFKPSGNLANDRVPTMFIAGNRDTVVTPSYLDGLYGSLPAATKKAYVQINGADHLFATKPNTVEMRTLIPWLKIFLDNDTRYSQFLCPTLLDKTGVSMYRGTCPLI [TEP109]	43

Continue with the sequence presented below.
Which PET hydrolysis value is on record for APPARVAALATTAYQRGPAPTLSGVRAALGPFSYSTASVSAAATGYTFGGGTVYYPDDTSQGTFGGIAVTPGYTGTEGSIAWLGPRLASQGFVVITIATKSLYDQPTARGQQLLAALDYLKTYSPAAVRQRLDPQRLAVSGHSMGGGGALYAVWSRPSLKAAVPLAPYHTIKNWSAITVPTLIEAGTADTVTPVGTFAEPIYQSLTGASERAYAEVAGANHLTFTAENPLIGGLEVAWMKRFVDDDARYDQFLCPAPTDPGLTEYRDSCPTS [TEP101] ?
9
